Data origin: paper PMC10786891

Target: T1, EsCas13d, nuclease-dead (Eubacterium siraeum, UniProt B0MS50, R295A;H300A;R849A;H854A)
T1 sequence: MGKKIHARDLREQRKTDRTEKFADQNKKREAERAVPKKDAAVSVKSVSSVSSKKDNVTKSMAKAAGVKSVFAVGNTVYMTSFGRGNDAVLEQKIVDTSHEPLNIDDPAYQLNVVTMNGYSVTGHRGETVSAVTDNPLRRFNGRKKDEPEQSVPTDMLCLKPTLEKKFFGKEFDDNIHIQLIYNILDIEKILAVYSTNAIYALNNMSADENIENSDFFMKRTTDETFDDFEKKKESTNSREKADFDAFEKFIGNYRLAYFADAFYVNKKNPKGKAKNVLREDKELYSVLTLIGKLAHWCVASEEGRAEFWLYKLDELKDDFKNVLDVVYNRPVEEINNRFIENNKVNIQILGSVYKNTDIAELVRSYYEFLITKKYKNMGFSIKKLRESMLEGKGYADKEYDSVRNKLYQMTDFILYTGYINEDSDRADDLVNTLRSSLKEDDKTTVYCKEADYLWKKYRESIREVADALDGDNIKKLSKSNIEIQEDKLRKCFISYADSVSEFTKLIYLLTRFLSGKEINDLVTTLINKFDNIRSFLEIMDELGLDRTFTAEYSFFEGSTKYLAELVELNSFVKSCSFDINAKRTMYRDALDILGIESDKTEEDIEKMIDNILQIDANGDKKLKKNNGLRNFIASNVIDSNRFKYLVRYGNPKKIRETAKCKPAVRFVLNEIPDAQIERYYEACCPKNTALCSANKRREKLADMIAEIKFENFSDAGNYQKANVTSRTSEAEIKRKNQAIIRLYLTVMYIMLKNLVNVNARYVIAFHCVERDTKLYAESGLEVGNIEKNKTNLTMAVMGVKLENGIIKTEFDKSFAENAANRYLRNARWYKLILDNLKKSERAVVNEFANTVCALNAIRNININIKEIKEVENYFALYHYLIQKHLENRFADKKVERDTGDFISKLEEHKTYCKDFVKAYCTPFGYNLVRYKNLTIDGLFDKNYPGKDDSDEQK
Assay: crRNA (strand 1, pre-loaded); Mg2+; 40 mM Tris-HCl pH 7.5, 150 mM NaCl, 6 mM MgCl2, 1 mM DTT, 0.1% Tween-20, 0.2 mg/ml BSA; 25 C; 10 min per concentration, then washed
Conditions: tags: His6-TwinStrep-SUMO cleaved; N-terminal SNAP kept (SNAP-Surface 488); label: 3' end held by stalled T7 RNA polymerase
value_kind: pKd
Note on pKd: it is the negative log10 of concentration, concentration in mol/L.

Could you please provide reported pKd for target 2 MT 5'PFS AAA 3'PFS AAC (mixed) RNA 1: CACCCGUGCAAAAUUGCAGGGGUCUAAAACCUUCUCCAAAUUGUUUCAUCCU RNA 2: GGGAAUGGAUCCACAUCUACGAAUUCAAAAGGAUGAAACAAUUUGGAGAAGAACAGAUCGGAAGAGCACACGU ? Thanks! 8.34
